biological target: NAD-dependent protein deacetylase sirtuin-2 (Homo sapiens); assay: Inhibition of recombinant SIRT2 (unknown origin) using RLIK(Ac)AMC as substrate assessed as reduction in deacetylase activity at 10 uM after 2 hrs in presence of NAD+ by fluorescence assay relative to control
measure-name: inhibition (%)
Respond numerically; units are % and should not be typed.

Endpoint output: inhibition of Cc1cc(C)nc(SCC(=O)Nc2cccc(COc3ccccc3)c2)n1 . Value?
53

Requested read-out: inhibition. Entry: Cc1cccc(Sc2ccc(NC(=O)CSc3nc(C)cc(C)n3)cc2)c1
70

Can you look up the measured inhibition of Cc1cc(C)nc(SCC(=O)Nc2ccc(Sc3ccsc3)cc2)n1 for me?
50

Would you mind telling me what inhibition value was observed for CC(=O)c1ccc(Sc2ccc(NC(=O)CSc3nc(C)cc(C)n3)cc2)cc1 ?
6

Any idea what its inhibition is? The compound is Cc1cc(C)nc(SCC(=O)Nc2ccc(Sc3ccccc3)cc2)n1
70

What does the record list as inhibition for Cc1ccc(Sc2ccc(NC(=O)CSc3nc(C)cc(C)n3)cc2)cc1 ?
30

###

target: NAD-dependent protein deacetylase sirtuin-2 (Homo sapiens); assay: Inhibition of recombinant SIRT2 (unknown origin) using RLIK(Ac)AMC as substrate assessed as reduction in deacetylase activity after 2 hrs in presence of NAD+ by fluorescence assay
measure-name: IC50 (nM)
Output spec: scalar in nM, unitless text.

Test system NAD-dependent protein deacetylase sirtuin-2 (Homo sapiens); read-out IC50; what value for Cc1cc(C)nc(SCC(=O)Nc2ccc(Sc3cccc(C(F)(F)F)c3)cc2)n1 ?
850

NAD-dependent protein deacetylase sirtuin-2 (Homo sapiens) / IC50 / Cc1cc(C)nc(SCC(=O)Nc2ccc(Sc3ccccc3)cc2)n1 : value?
1320

Field: IC50 (NAD-dependent protein deacetylase sirtuin-2 (Homo sapiens)). Entry: Cc1cc(C)nc(SCC(=O)Nc2cccc(Sc3ccccc3)c2)n1
6650

Provide value of IC50 for this record tested with NAD-dependent protein deacetylase sirtuin-2 (Homo sapiens): COc1cccc(Sc2ccc(NC(=O)CSc3nc(C)cc(C)n3)cc2)c1
700

###

Target: NAD-dependent protein deacetylase sirtuin-2 (Homo sapiens)
Sequence (whole entry): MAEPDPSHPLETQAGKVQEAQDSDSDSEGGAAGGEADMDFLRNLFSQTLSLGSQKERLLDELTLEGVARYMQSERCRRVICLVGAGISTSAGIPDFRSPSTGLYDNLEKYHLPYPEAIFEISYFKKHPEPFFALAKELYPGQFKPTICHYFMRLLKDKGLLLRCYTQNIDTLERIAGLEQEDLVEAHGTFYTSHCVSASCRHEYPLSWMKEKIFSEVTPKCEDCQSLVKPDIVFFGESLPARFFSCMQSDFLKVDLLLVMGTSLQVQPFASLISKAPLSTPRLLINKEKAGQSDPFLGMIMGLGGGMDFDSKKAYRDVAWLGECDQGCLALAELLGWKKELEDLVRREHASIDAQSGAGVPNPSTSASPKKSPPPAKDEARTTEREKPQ
Experiment: Inhibition of recombinant SIRT2 (unknown origin) using ETDK(Ca)AMC as substrate assessed as reduction in decanoylase activity at 100 uM after 2 hrs in presence of NAD+ by fluorescence assay relative to control
Field: inhibition. Provide a value for each of the compounds that follow.
Response body: numeric value in %, unit text excluded.

May I ask what inhibition has been recorded for Cc1cc(C)nc(SCC(=O)Nc2ccc(Sc3ccccc3)cc2)n1 ?
53

Entry under review: Cc1cc(C)nc(SCC(=O)Nc2ccc(Sc3cccc4ccccc34)cc2)n1 . Reported inhibition?
58

Data request, read-out inhibition, for Cc1cc(C)nc(SCC(=O)Nc2ccc(Sc3ccc4ccccc4c3)cc2)n1
38

// inhibition lookup, key: COc1cccc(Sc2ccc(NC(=O)CSc3nc(C)cc(C)n3)cc2)c1
80

For the compound shown here, Cc1cc(C)nc(SCC(=O)Nc2ccc([S+]([O-])c3ccccc3)cc2)n1 (stereo not given) , give the reported inhibition.
23

Return reported inhibition; argument: Cc1cc(C)nc(SCC(=O)Nc2ccc(Sc3cccc(C(F)(F)F)c3)cc2)n1
77

Returns the measured inhibition for the input compound. Input: Cc1ccc(Sc2ccc(NC(=O)CSc3nc(C)cc(C)n3)cc2)cc1
70

What does the record list as inhibition for Cc1cc(C)nc(SCC(=O)Nc2ccc(Sc3ccc(C(F)(F)F)cc3)cc2)n1 ?
42

Field request: inhibition | item: Cc1cccc(Sc2ccc(NC(=O)CSc3nc(C)cc(C)n3)cc2)c1
65

Fill blank: measured inhibition of the compound COc1ccc(Sc2ccc(NC(=O)CSc3nc(C)cc(C)n3)cc2)cc1 is ____.
58

###

Provide the recorded inhibition for the entries that follow.
molecular target: NAD-dependent protein deacetylase sirtuin-2 (Homo sapiens) (UniProt Q8IXJ6); test: Inhibition of recombinant SIRT2 (unknown origin) using ETDK(Ca)AMC as substrate assessed as reduction in decanoylase activity at 100 uM after 2 hrs in presence of NAD+ by fluorescence assay relative to control
Record the value in %, omitting the unit from your answer.

Request the reported inhibition associated with Cc1cc(C)nc(SCC(=O)Nc2ccc(S(=O)(=O)c3ccccc3)cc2)n1
18

Looking for the measured inhibition of CC(=O)c1ccc(Sc2ccc(NC(=O)CSc3nc(C)cc(C)n3)cc2)cc1 , can you help?
35

Item under review: Cc1cc(C)nc(SCC(=O)Nc2ccc(Sc3ccsc3)cc2)n1 . Reported inhibition?
58

inhibition lookup needed for Cc1cc(C)nc(SCC(=O)Nc2ccc(Sc3ccc(OC(F)(F)F)cc3)cc2)n1 , thanks.
63

State the recorded inhibition for this entry: Cc1cc(C)nc(SCC(=O)Nc2cccc(Sc3ccccc3)c2)n1
30

Looking for the measured inhibition of Cc1cc(C)nc(SCC(=O)Nc2ccc(Sc3cccnc3)cc2)n1 , can you help?
60

###

Biological target: NAD-dependent protein deacetylase sirtuin-2 (Homo sapiens) (UniProt Q8IXJ6)
Sequence (whole entry): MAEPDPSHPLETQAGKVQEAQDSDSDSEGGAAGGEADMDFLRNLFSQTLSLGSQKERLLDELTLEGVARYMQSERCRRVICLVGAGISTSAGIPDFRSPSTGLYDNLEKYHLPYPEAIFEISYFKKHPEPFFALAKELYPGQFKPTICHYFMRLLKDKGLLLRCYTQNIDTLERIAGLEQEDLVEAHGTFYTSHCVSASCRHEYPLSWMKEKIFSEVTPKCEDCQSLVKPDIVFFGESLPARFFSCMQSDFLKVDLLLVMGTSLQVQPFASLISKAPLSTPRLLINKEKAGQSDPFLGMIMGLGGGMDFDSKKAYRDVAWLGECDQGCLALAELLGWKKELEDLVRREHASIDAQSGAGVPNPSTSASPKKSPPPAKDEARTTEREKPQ
Experiment: Inhibition of recombinant SIRT2 (unknown origin) using RLIK(Ac)AMC as substrate assessed as reduction in deacetylase activity at 100 uM after 2 hrs in presence of NAD+ by fluorescence assay relative to control
Where inhibition equals or exceeds 60%, the correct label is Fulfilled; where it does not, the label is Not fulfilled.

Reported inhibition at or above 60%? COc1ccc(Sc2ccc(NC(=O)CSc3nc(C)cc(C)n3)cc2)cc1
Fulfilled

Does the reported inhibition for Cc1cc(C)nc(SCC(=O)Nc2ccc(Sc3cccc(C(F)(F)F)c3)cc2)n1 fall at or above the 60% mark?
Fulfilled

Is it the case that Cc1cc(C)nc(SCC(=O)Nc2cccc(Sc3ccccc3)c2)n1 has inhibition reaching or exceeding 60%?
Fulfilled

Please check the record Cc1cc(C)nc(SCC(=O)Nc2ccc(Sc3cccnc3)cc2)n1 and state if its inhibition is at or above 60%.
Fulfilled

Confirm if inhibition reported for the molecule Cc1cc(C)nc(SCC(=O)Nc2ccc(S(=O)(=O)c3ccccc3)cc2)n1 is 60% or above.
Not fulfilled

# bool: inhibition of Cc1cc(C)nc(SCC(=O)Nc2ccc(Sc3ccc(C(F)(F)F)cc3)cc2)n1 >= 60%
Not fulfilled

Given the entry Cc1cc(C)nc(SCC(=O)Nc2cccc(COc3ccccc3)c2)n1 , answer whether its inhibition meets or surpasses 60%.
Fulfilled

Does inhibition meet or surpass 60% for COc1cccc(Sc2ccc(NC(=O)CSc3nc(C)cc(C)n3)cc2)c1 ?
Fulfilled

Given the entry Cc1cc(C)nc(SCC(=O)Nc2ccc(Sc3ccccc3)cc2)n1 , answer whether its inhibition meets or surpasses 60%.
Fulfilled

Quick check, inhibition >= 60%? Cc1cc(C)nc(SCC(=O)Nc2ccc([S+]([O-])c3ccccc3)cc2)n1 (configuration not stated)
Not fulfilled

Textbook exercise: given the entry Cc1cc(C)nc(SCC(=O)Nc2ccc(Sc3cccc4ccccc34)cc2)n1 , state whether its inhibition is greater than or equal to 60%.
Not fulfilled

// inclusive: inhibition at least 60%? input: Cc1cccc(Sc2ccc(NC(=O)CSc3nc(C)cc(C)n3)cc2)c1
Fulfilled

Is it the case that Cc1cc(C)nc(SCC(=O)Nc2ccc(Sc3ccc4ccccc4c3)cc2)n1 has inhibition reaching or exceeding 60%?
Fulfilled

Check the entry CC(=O)c1ccc(Sc2ccc(NC(=O)CSc3nc(C)cc(C)n3)cc2)cc1 : does inhibition equal or exceed 60%?
Not fulfilled

Please tell me: is the molecule Cc1ccc(Sc2ccc(NC(=O)CSc3nc(C)cc(C)n3)cc2)cc1 at or over 60% in terms of inhibition?
Fulfilled

Hi team, for Cc1cc(C)nc(SCC(=O)Nc2ccc(Sc3ccsc3)cc2)n1 , is the recorded inhibition at or above 60%?
Fulfilled
